Test system: Vero
Assay: Cytotoxicity against african green monkey Vero cells after 72 hrs by MTT assay
Assay type: cell-based
Settings: Chlorocebus sabaeus
observed_property: IC50 (µM)
One number for each entry, in µM.

compound COc1cc2c(cc1OC)C1=NN(C(=O)Nc3ccc([N+](=O)[O-])cc3)C(c3ccccc3)C1C2 (stereo not drawn) , IC50 observed: 51.1

compound COc1cc2c(cc1OC)C1=NN(C(=O)Nc3ccc([N+](=O)[O-])cc3)C(c3ccncc3)C1C2 (stereo not drawn) , IC50 observed: 68

compound COc1cc2c(cc1OC)C1=NN(C(=O)Nc3ccc([N+](=O)[O-])cc3)C(c3ccc(F)cc3)C1C2 (stereo not drawn) , IC50 observed: 94.8

Now examine the next entry.
compound COc1cc2c(cc1OC)C1=NN(C(N)=O)C(c3ccc(F)cc3)C1C2 (stereo not drawn) , IC50 observed: 177

This collection of values is drawn from ChEMBL document CHEMBL1909540.
